As shown below, each of these compounds has a reported Kd value.
Target protein (sequence): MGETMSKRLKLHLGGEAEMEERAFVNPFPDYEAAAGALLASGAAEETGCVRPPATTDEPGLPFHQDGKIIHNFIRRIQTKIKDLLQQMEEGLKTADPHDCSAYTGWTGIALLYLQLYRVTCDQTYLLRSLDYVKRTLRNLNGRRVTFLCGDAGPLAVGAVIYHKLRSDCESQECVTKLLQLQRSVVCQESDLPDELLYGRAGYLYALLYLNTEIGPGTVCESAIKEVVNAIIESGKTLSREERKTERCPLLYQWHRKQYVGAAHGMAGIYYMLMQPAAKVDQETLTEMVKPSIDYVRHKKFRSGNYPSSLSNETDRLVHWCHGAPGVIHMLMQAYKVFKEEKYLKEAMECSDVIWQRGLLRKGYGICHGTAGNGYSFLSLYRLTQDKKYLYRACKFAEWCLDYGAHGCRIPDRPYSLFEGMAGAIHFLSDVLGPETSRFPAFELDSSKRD
Could you give me the number in µM? Just the number is fine.

Consider the worked cases shown below.
O=C(c1ccnc(Nc2ccccn2)c1)N1CC2CN(C(=O)c3cccc(-c4nc5ccccc5[nH]4)n3)CC2C1 (stereo not drawn)
36
O=C(c1cccc(-c2cn3ccccc3n2)c1)N1CC2CN(C(=O)c3cccc(-c4nc5ccccc5[nH]4)n3)CC2C1 (stereo not drawn)
16.8

Let us move to another entry and its Kd.
Reported Kd ( O=C(N[C@H]1[C@@H]2CN(C(=O)c3cccc(-c4cn5ccccc5n4)c3)C[C@@H]21)c1cccc(-c2cn3ccccc3n2)c1 ) = 2.53

---

- tested-target: LanC-like protein 2 (Homo sapiens)
value-kind: pKd
// pKd here means minus log10 of the molar concentration (mol/L)

Here is how some molecules turned out for pKd.
O=C(c1ccnc(Nc2ccccc2)n1)N1CCC2(CC1)CCN(C(=O)c1ccnc(Nc3ccccn3)n1)CC2
4.91
O=C(NC1CCN(C(=O)c2cccc(Nc3ccccc3)n2)CC1)c1cccc(Nc2ccccc2)n1
4.97
O=C(Nc1ccccc1NC(=O)c1cccc(-c2cn3ccccc3n2)c1)c1cccc(-c2cn3ccccc3n2)c1
5.35
O=C(NC1C2CN(C(=O)c3cccc(-c4nc5ccccc5[nH]4)n3)CC21)c1ccnc(Nc2ccccn2)n1 (stereo not drawn)
5.70
O=C(C1CCCN1C(=O)c1cccc(-c2cn3ccccc3n2)c1)N1CC2CN(c3ccc([N+](=O)[O-])cc3)CC2C1 (stereo not drawn)
5.20
O=C(NC1CCN(C(=O)c2cccc(-c3nc4ccccc4[nH]3)n2)CC1)c1cccc(Nc2ccccc2)n1
4.88
O=C(NC1CCN(C(=O)c2cccc(-c3nc4ccccc4[nH]3)n2)CC1)c1cccc(-c2cn3ccccc3n2)c1
4.77
O=C(c1cccc([N+](=O)[O-])c1)N1CCC2(CC1)CCN(C(=O)c1cccc(-c3nc4ccccc4[nH]3)n1)CC2
5.49
O=C(c1cccc(-c2cn3ccccc3n2)c1)N1CC2CC1CN2C(=O)c1cccc(-c2nc3ccccc3[nH]2)n1 (stereo not drawn)
4.40
O=C(N[C@H]1[C@@H]2CN(C(=O)c3n[nH]c4ccccc34)C[C@@H]21)c1cccc(-c2cn3ccccc3n2)c1
5.36

Item: O=C(Nc1cccc(-c2cn3ccccc3n2)c1)N1CCN(C(=O)c2cccc(-c3nc4ccccc4[nH]3)n2)CC1 | pKd: 5.06

Looking up O=C(c1cccc(-c2nc3ccccc3[nH]2)n1)N1CC2CN(C(=O)c3ccnc(Nc4ccccn4)n3)CC2C1 (stereo not drawn) , I see its pKd listed as 4.18

Data point: O=C(N[C@H]1[C@@H]2CN(C(=O)c3cccnc3Oc3ccccc3)C[C@@H]21)c1cccc(-c2cn3ccccc3n2)c1 ; pKd = 4.76
